- assay.target: recombinant soluble homotrimeric HA of A/swine/Ontario/01911-2/99 (H4N6) (Influenza A virus A/Swine/Ontario/01911-2/99 (H4N6))
- method.description: trimeric HA microarray, transfection supernatant set 5
- experimental.context: remark: other sources report otherwise
reported.metric: Trimeric HA Binding: RLU
Please answer using a numeric value trailed by its unit.

Sample TCN-545 (5082_I15) (antibody, V domains shown) VH: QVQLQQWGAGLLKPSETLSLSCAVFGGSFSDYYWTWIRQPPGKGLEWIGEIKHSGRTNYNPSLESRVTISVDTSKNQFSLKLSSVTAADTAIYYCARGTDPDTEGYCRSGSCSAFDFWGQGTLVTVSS VL: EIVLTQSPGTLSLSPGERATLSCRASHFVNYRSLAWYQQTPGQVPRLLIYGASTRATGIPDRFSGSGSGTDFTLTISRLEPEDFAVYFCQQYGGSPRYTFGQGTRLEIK ; Trimeric HA Binding: RLU observed: 2940 RLU
